Each item that follows carries a reported gcPBM binding intensity (ln).
system: PfAP2-LT AP2 domain (GST-tagged); assay: gcPBM binding intensity (ln(normalized median fluorescence intensity)); higher = stronger DNA binding
The full ranking holds about 25,000 sequences; the median of “ln(normalized median fluorescence intensity)” is about 8.9, and the highest 2% start at about 10. The sample as a whole holds a higher share of the highest values than the screen did.

# count of solved cases: 5
* TAACAAATATTATTTTGTACATAATATATATATATA [XGTACX_site6898] | 8.6
* ATAAGTGTATAAAAATGTACGTGTATAAAAATATGT [XGTACX_site8235] | 9.06
* TATAATCATATATACACACACATATATATATATATA [CACACA_site2168] | 9.8
* TTTTCTATATAGTGTTGTACATTATTGTGTAAAAAT [XGTACX_site3223] | 8.7
* ACCCATAAAAAGGATACACACACACCCACCCATATA [CACACA_site8205] | 10.3

input: I'd like to know its gcPBM binding intensity (ln). The sequence in question is AATGTAGGTTTATTTACACACAAATATAGATATATA [CACACA_site6825]
output: 8.96

input: I'd like to know its gcPBM binding intensity (ln). The sequence in question is TACATATAAAAGTACACACACACACCCATATATATA [CACACA_site941]
output: 10.1

input: I'd like to know its gcPBM binding intensity (ln). The sequence in question is TACCAATAAATGAAGGTGCGTGCTTGCCTTTGCTAT
output: 8.95

input: I'd like to know its gcPBM binding intensity (ln). The sequence in question is ATATATTATATGTACACACACATATAAGGGATTATA [CACACA_site5]
output: 9.28

input: I'd like to know its gcPBM binding intensity (ln). The sequence in question is TTTTTGTAATATTATGATGTCATATATATATATATA [XGTACX_negctrl_site618]
output: 9.04

input: I'd like to know its gcPBM binding intensity (ln). The sequence in question is TGAGGTAACTAAATATGTACGTAACGAAGATACATA [XGTACX_site8231]
output: 8.96

input: I'd like to know its gcPBM binding intensity (ln). The sequence in question is TAAAAGTTAATATAAACACACAAAAATTAATAAATA [CACACA_site6316]
output: 8.73

----------
test system: PfAP2-LT AP2 domain (GST-tagged); experiment: gcPBM binding intensity (ln(normalized median fluorescence intensity)); higher = stronger DNA binding
Over roughly 25,000 sequences, “ln(normalized median fluorescence intensity)” has its median near 8.9; the highest 2% begin near 10. The sample as a whole holds a higher share of the highest values than the screen did.
Label rule met when gcPBM binding intensity (ln) is at or above 10; otherwise label rule not met.

Please review the following examples before continuing.
* GGAGCACCCAGACACACACACACATATATATATATA [CACACA_site336] | rule met
* GTATTATAGTATAATACACACCCAAATATTAAAAAG [CACACA_site7404] | rule not met
* TATTAATACAGACACACACACACACCCAATAAAATA [CACACA_site243] | rule met

input: hey, is gcPBM binding intensity (ln) for this one >= 10? TGCATTATATTAAATTTTTTATTTGTTGATGTTATA [GTGCAC_negctrl_site371]
output: rule not met

input: hey, is gcPBM binding intensity (ln) for this one >= 10? AAAAAAAAAAAATACACACAAACACAAATTAAATAA [CACACA_site3809]
output: rule not met

input: hey, is gcPBM binding intensity (ln) for this one >= 10? AAAAAAAAAAAAAAAACACACATATATATATAATAT [CACACA_site1159]
output: rule not met
